pIC50 overview
Molecular target: T1, human RANK-L (human, UniProt O14788 140-317, limits assumed)
T1 construct: Soluble protein, used coated, biotinylated or labelled in ELISA, AlphaScreen, FMAT and Biacore; also called hRANK-L; soluble human RANK-L
T1 sequence (looked up): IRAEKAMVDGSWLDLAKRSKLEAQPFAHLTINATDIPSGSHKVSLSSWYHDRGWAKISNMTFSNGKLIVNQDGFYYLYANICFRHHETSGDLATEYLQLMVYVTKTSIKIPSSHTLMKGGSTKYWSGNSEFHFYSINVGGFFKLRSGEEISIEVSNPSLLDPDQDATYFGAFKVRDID
Test: FMAT, ALEXA647-hRANK-L / RANK on HEK293T cells
Field pIC50 (float): negative decimal logarithm of the concentration in molar.

{"binder": "RANKL181biv (VHH, Bivalent Nanobody; also called RANKL18-9GS-RANKL18) EVQLVESGGGLVQAGGSLRLSCAASGRTFSRSAMGWFRQAPGKEREFVGFITGSGGTTYYGESVKGRFTISRDNAQNPVYLQMNSLKPEDTAVYYCGVYRRTYISSTYSESSEYDYWGQGTQVTVSSGGGGSGGGSEVQLVESGGGLVQAGGSLRLSCAASGRTFSRSAMGWFRQAPGKEREFVGFITGSGGTTYYGESVKGRFTISRDNAQNPVYLQMNSLKPEDTAVYYCGVYRRTYISSTYSESSEYDYWGQGTQVTVSS", "quantity": "pIC50", "measured.result": 9.87}
{"binder": "RANKL91biv (VHH, Bivalent Nanobody; also called RANKL9-9GS-RANKL9) EVQLVESGGGLVQAGGSLRLTCAASGRTFRSYAMGWFRQAPGKEREFVAAINYSGGSTNYADSVKGRFTISRDNAKNTLYLQMNSLEPEDTAVYYCAAGSGYASLSYYSTERAYTYWGQGTQVTVSSGGGGSGGGSEVQLVESGGGLVQAGGSLRLTCAASGRTFRSYAMGWFRQAPGKEREFVAAINYSGGSTNYADSVKGRFTISRDNAKNTLYLQMNSLEPEDTAVYYCAAGSGYASLSYYSTERAYTYWGQGTQVTVSS", "quantity": "pIC50", "measured.result": 10.05}
{"binder": "RANKL182biv (VHH, Bivalent Nanobody; also called RANKL18-20GS-RANKL18) EVQLVESGGGLVQAGGSLRLSCAASGRTFSRSAMGWFRQAPGKEREFVGFITGSGGTTYYGESVKGRFTISRDNAQNPVYLQMNSLKPEDTAVYYCGVYRRTYISSTYSESSEYDYWGQGTQVTVSSGGGGSGGGGSGGGGSGGGGSEVQLVESGGGLVQAGGSLRLSCAASGRTFSRSAMGWFRQAPGKEREFVGFITGSGGTTYYGESVKGRFTISRDNAQNPVYLQMNSLKPEDTAVYYCGVYRRTYISSTYSESSEYDYWGQGTQVTVSS", "quantity": "pIC50", "measured.result": 10.12}

Query :: Specify pIC50 for RANKL183biv (VHH, Bivalent Nanobody; also called RANKL18-30GS-RANKL18) EVQLVESGGGLVQAGGSLRLSCAASGRTFSRSAMGWFRQAPGKEREFVGFITGSGGTTYYGESVKGRFTISRDNAQNPVYLQMNSLKPEDTAVYYCGVYRRTYISSTYSESSEYDYWGQGTQVTVSSGGGGSGGGGSGGGGSGGGGSGGGGSGGGGSEVQLVESGGGLVQAGGSLRLSCAASGRTFSRSAMGWFRQAPGKEREFVGFITGSGGTTYYGESVKGRFTISRDNAQNPVYLQMNSLKPEDTAVYYCGVYRRTYISSTYSESSEYDYWGQGTQVTVSS and stop.
Result :: 10.28
